Kindly state Peptide-ratio 19-24/2-7 for each of the entries shown.
target.of.assay: T1, BSA-conjugated Aβ heptapeptide FFAEDVC (C-terminal Cys coupled to NSMP-activated BSA);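 note: ELISA binding of human antibody (10 or 2 µg/ml) to plate-coated BSA–peptide conjugates, detected with HRP anti-human Ig and TMB colour, mock-treated BSA as negative control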
T1 construct: also called Peptide 19-24
T1 peptide: FFAEDVC
experiment.summary: ELISA
One number for each entry.

>  <binder>
MS-R #7.12 IgG1 (antibody, V domains shown, full-length human IgG1) VH: QVELVESGGGLVQPGGSLRLSCAASGFTFSSYGMSWVRQAPGKGLEWVSNISGSGSSTYYADSVKGRFTISRDNSKNTLYLQMNSLRAEDTAVYYCARGKGNTHKPYGYVRYFDVWGQGTLVTVSS VL: DIVLTQSPATLSLSPGERATLSCRASQYVSSPYLAWYQQKPGQAPRLLISGSSNRATGVPARFSGSGSGTDFTLTISSLEPEDFAVYYCLQLYNIPNTFGQGTKVEIKR

>  <reported.measurement>
0.58

$$$$
>  <binder>
MS-R IgG 8.2.H2 × 8.2.L1 (antibody, V domains shown, full-length human IgG) VH: QVELVESGGGLVQPGGSLRLSCAASGFTFSSYAMSWVRQAPGKGLEWVSAISRTGSKTYYADSVKGRFTISRDNSKNTLYLQMNSLRAEDTAVYYCARLLSRGYNGYYHKFDVWGQGTLVTVSS VL: DIVLTQSPATLSLSPGERATLSCRASQRVSGRYLAWYQQKPGQAPRLLIYGASSRATGVPARFSGSGSGTDFTLTISSLEPEDFATYYCQQLSSYPPTFGQGTKVEIKR

>  <reported.measurement>
1.92

$$$$
>  <binder>
MS-R IgG 7.11H2 (antibody, V domains shown, full-length human IgG; also called 7.11H2 IgG) VH: QVELVESGGGLVQPGGSLRLSCAASGFTFSSYAMSWVRQAPGKGLEWVSAINANGYKKYYADSVKGRFTISRDNSKNTLYLQMNSLRAEDTAVYYCARGKGNTHKPYGYVRYFDVWGQGTLVTVSS VL: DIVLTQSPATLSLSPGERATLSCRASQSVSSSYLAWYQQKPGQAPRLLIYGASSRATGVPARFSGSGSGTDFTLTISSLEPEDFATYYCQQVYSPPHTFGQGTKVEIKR

>  <reported.measurement>
0.6

$$$$

Value sought for every listed binder: Peptide-ratio 19-24/2-7.
1. MSR 7.9.H2 IgG1 (antibody, V domains shown, full-length human IgG1) VH: QVELVESGGGLVQPGGSLRLSCAASGFTFSSYAMSWVRQAPGKGLEWVSAINADGNRKYYADSVKGRFTISRDNSKNTLYLQMNSLRAEDTAVYYCARGKGNTHKPYGYVRYFDVWGQGTLVTVSS VL: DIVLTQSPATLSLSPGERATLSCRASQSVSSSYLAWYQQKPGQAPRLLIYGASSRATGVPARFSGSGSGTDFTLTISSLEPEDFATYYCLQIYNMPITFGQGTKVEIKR
2. MS-R IgG1 7.9.H3 (antibody, V domains shown, full-length human IgG1; also called 7.9H3 IgG) VH: QVELVESGGGLVQPGGSLRLSCAASGFTFSSYAMSWVRQAPGKGLEWVSAINYQGNRKYYADSVKGRFTISRDNSKNTLYLQMNSLRAEDTAVYYCARGKGNTHKPYGYVRYFDVWGQGTLVTVSS VL: DIVLTQSPATLSLSPGERATLSCRASQSVSSSYLAWYQQKPGQAPRLLIYGASSRATGVPARFSGSGSGTDFTLTISSLEPEDFATYYCLQIYNMPITFGQGTKVEIK

Solution:
[0.46, 0.46]
